# Target Or Test System: UniProt P37288
# Sequence (P37288 whole entry): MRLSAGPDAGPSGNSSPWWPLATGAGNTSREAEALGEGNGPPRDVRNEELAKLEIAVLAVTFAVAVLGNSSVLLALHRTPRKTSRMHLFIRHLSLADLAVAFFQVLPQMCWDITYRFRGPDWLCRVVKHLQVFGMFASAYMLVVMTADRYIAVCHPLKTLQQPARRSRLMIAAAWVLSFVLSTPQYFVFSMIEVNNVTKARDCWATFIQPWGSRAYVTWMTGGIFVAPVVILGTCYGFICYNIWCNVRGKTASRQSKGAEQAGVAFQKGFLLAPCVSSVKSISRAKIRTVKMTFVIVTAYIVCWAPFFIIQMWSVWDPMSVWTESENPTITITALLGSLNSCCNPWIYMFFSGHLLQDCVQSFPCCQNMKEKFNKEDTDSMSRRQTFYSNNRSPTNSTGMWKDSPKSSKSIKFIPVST
# Protocol Notes: Human vasopressin V1a receptor binding assay
# Test Parameters: 1321N1 cell membranes, [3H]vasopressin; read-out: Ki (nM) on hV1a cell line
Recorded Endpoint: Ki (nM)

FC(F)(F)c1ccc2c(c1)CC(OCC1CC1)Cc1nnc([C@H]3CC[C@H](Oc4ccccn4)CC3)n1-2 (stereo partly shown)
7.6

1. CCC(C)(C)C(=O)N[C@H]1Cc2cc(Cl)ccc2-n2c(nnc2[C@H]2CC[C@H](Oc3ccccn3)CC2)C1
2. O=C1Cc2cc(Br)ccc2-n2c(nnc2[C@H]2CC[C@H](C(F)(F)F)CC2)C1
3. N#Cc1ccc2c(c1)CC1(Cc3nnc([C@H]4CC[C@H](Oc5ccccn5)CC4)n3-2)OCCO1
Put the items in sequence by Ki, from largest down. Response format: the labels, sorted as the prompt asks. 1, 2, 3
(1: 62 nM, 2: 9.1 nM, 3: 0.8 nM)
